# Test system: Mus musculus
# assay comment: AUC (0 to 7 hrs) in CD-1 mouse at 10 mg/kg, ip administered as single dose by LC-MS/MS analysis
# Format: ADME, organism-based
# Set-up: time < 7 hr, dose 10 mg/kg, route intraperitoneal
# study conditions: in vivo
recorded endpoint: AUC (µM·h)
Answers are plain numbers, in µM·h.

Query: Output measured AUC for this item: "Cn1c(CNc2cccc(C(=O)NCc3ccccc3C(F)(F)F)c2)nnc1-c1ccncc1"
Result: 1.9

* * *

# assay comment: Plasma concentration in CD-1 mouse at 10 mg/kg, ip after 4 hrs administered as single dose by LC-MS/MS analysis
# Format: ADME, organism-based
recorded endpoint: concentration at 4 h (nM)
Give bare numbers, in nM.

substance smiles: O=C(NCc1ccn[nH]1)c1cc([C@@H]2CCNC[C@H]2COc2ccc3c(c2)OCO3)ccc1F
unit info: nM
recorded number: 270

Query: Output measured concentration at 4 h for this item: "Cn1c(CNc2cccc(C(=O)NCc3ccccc3C(F)(F)F)c2)nnc1-c1ccncc1"
Result: 5
